Attribution: ChEMBL document CHEMBL3621085

test system: Mycobacterium kansasii; test: Antimycobacterial activity against Mycobacterium kansasii 6509/96 after 7 days by micromethod; assay type: functional; settings: 6509/96, 168 h
Note to self: MIC under 20 µM means 1.0, ties and anything higher get 0.0.

Please review the entries below; each comes with its answer.
# molecule, assigned-class
data = [
    ("COc1ccc(C[Se]c2nnn(Cc3cc([N+](=O)[O-])cc([N+](=O)[O-])c3)n2)cc1", 1.0),
    ("O=[N+]([O-])c1ccc(C[Se]c2nnn(Cc3ccc([N+](=O)[O-])cc3)n2)cc1", 0.0),
]

Prompt line: Lab note: MIC threshold 20 µM. Does this compound come in strictly under it? Cn1nnc(SCc2cc([N+](=O)[O-])cc([N+](=O)[O-])c2)n1
Response line: 1.0

Prompt line: Lab note: MIC threshold 20 µM. Does this compound come in strictly under it? O=[N+]([O-])c1ccc(C[Se]c2nnnn2Cc2ccccc2)c([N+](=O)[O-])c1
Response line: 1.0

Prompt line: Lab note: MIC threshold 20 µM. Does this compound come in strictly under it? O=[N+]([O-])c1cc(Cn2nnc(SCc3ccccc3)n2)cc([N+](=O)[O-])c1
Response line: 1.0

Prompt line: Lab note: MIC threshold 20 µM. Does this compound come in strictly under it? O=[N+]([O-])c1ccc(CSc2nnn(Cc3ccc([N+](=O)[O-])cc3)n2)cc1
Response line: 0.0

Prompt line: Lab note: MIC threshold 20 µM. Does this compound come in strictly under it? O=[N+]([O-])c1cc(C[Se]c2nnnn2Cc2ccccc2)cc([N+](=O)[O-])c1
Response line: 1.0

Prompt line: Lab note: MIC threshold 20 µM. Does this compound come in strictly under it? O=[N+]([O-])c1ccc(CSc2nnnn2Cc2ccc([N+](=O)[O-])cc2)cc1
Response line: 0.0

Prompt line: Lab note: MIC threshold 20 µM. Does this compound come in strictly under it? O=[N+]([O-])c1ccc(CSc2nnn(Cc3ccccc3)n2)c([N+](=O)[O-])c1
Response line: 1.0
